# Assay System: norepinephrine transporter (NET) (Homo sapiens, UniProt P23975)
# Sequence (P23975 whole entry): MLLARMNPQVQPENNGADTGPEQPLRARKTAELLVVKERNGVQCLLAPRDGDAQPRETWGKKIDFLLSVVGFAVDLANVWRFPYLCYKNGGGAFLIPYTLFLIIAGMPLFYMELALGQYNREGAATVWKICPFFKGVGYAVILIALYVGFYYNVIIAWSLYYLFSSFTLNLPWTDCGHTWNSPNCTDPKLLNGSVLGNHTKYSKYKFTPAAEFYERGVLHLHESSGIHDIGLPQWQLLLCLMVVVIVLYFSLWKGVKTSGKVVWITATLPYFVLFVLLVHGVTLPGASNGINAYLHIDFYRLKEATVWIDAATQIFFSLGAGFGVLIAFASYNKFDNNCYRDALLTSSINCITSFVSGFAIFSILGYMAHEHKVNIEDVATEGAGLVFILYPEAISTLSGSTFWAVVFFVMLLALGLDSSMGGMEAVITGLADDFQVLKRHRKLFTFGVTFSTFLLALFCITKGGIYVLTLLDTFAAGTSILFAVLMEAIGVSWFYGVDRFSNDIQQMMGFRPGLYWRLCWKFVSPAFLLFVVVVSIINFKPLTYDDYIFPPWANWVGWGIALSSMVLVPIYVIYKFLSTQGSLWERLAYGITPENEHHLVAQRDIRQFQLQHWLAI
# Assay Text: competitive inhibition of […]AF78 uptake in SK-N-SH cells ([…] against […]MIBG)
Outcome Measure: IC50 (nM)
The figure you give is taken to be in nM; do not add the unit.

**Query** # lookup: IC50 of N=C(N)NCCc1ccc(F)c(O)c1 [4F-MHPG]
**Result** 850
